So I've got a bunch of compounds here, and I need their growth values.
- Test system: MDA-MB-435 melanoma
- run description: NCI-60 one-dose screen, 48 h (100 = growth as untreated, 0 = no growth, -100 = all killed)
- reported conditions: 10 µM unless noted
About 83,000 compounds went through this panel and 20% of them were active in at least one assay; those are over-represented in the sample as a whole.
Numbers only, in %.

compound: N#Cc1c(N)nc(Nc2nc3ccccc3[nH]2)nc1-c1ccc(Cl)cc1
assay metric: growth
output unit: %
assay value: 106

compound: CC(=O)CC(=O)OC/C=C(/C)CCC=C(C)C
assay metric: growth
output unit: %
assay value: 114

compound: COc1cc(NC(C)CCCN)c2nc(C)ccc2c1OC (stereo not drawn)
assay metric: growth
output unit: %
assay value: 121

compound: COc1ccc(C(O)(c2ccccc2)C(C(=O)O)c2ccccc2)cc1 (stereo not drawn)
assay metric: growth
output unit: %
assay value: 117

compound: CC(O)C(N)=O (stereo not drawn)
assay metric: growth
output unit: %
assay value: 103

For the 8 compounds below, give their growth values.
1. O=C(Nc1ccc(-n2cc(-c3ccncc3)c(-c3ccc(Cl)c(O)c3)n2)cc1)c1ccc(Cl)c(C(F)(F)F)c1
2. COC1=CC(c2ccc[nH]2)=N/C1=C\c1[nH]c(C)c(C(=O)CCCCC(=O)NC(C)(C)C)c1C
3. COc1cc(-c2nn(-c3ccc(NC(=O)c4cc(Cl)cc(Cl)c4)cc3)cc2-c2ccncc2)ccc1Cl
4. COc1ccc(-c2nc(SCC(C)C)nc(Nc3ccc([N+](=O)[O-])cc3)c2C#N)cc1
5. Nc1nc(-c2cccc(Br)c2)cc(-c2cc3ccccc3oc2=O)n1
6. O=Nc1c(-c2c(O)[nH]c3cc(Br)ccc23)[nH]c2ccccc12
7. NC(CSC(c1ccccc1)(c1ccccc1)c1ccccc1)C(=O)NCC(=O)O (stereo not drawn)
8. O=C(/C=C/c1c[nH]c2ccccc12)c1cc2ccccc2o1

Found:
[3.99, 7.73, 84.1, 101, 117, 31.4, -5.86, 92.1]

For the 5 compounds below, give their growth values.
1. Oc1ccccc1\C=N/N=C/C=C/c1ccccc1
2. CCCCCCCCCCCCCCCCCC(=O)Nc1ccc(O)cc1
3. O=C1C(=O)c2ccccc2C(O)=C1CCCc1ccc(C2CCCC2)cc1
4. CC[n+]1c(C)ccc2cc(C)ccc21
5. O=C(O)c1ccc(Br)nc1

Found:
105
107
42
118
103

* * *

- System: NCI-H322M lung
- run description: NCI-60 one-dose screen, 48 h (100 = growth as untreated, 0 = no growth, -100 = all killed)
- reported conditions: 10 µM unless noted
About 83,000 compounds went through this panel and 20% of them were active in at least one assay; those are over-represented in the sample as a whole.
So I've got a bunch of molecules here, and I need their growth values.
Answers are plain numbers, in %.

The following molecules have reported results that may help.
chemical string: CC(=O)c1cc(Nc2cc(C)nc(N)n2)cc(C(C)=O)c1
tested system: NCI-H322M lung
growth, %: 107
--
chemical string: COc1ccc2sc(-n3nc4nc5n(c(=O)c4c3N)-c3ccccc3Sc3ccccc3-5)nc2c1
tested system: NCI-H322M lung
growth, %: 75.4
--
chemical string: COc1cc2ncnc(-n3ncc4cc(NC(=O)Nc5ccccc5)ccc43)c2cc1OC
tested system: NCI-H322M lung
growth, %: 30.9

For the 6 molecules below, give their growth values.
1. CC[C@H](Nc1ncnc2nc[nH]c12)c1nc2cccc(NCc3ccc(C(=O)NO)nc3)c2c(=O)n1-c1ccccc1
2. COc1ccc(-c2cn3ccnc3c(-c3ccc4ncn(C5CCCCC5)c4c3)n2)cc1
3. COc1cc(-c2nn(-c3ccc(NC(=O)Nc4cc(C(F)(F)F)cc(C(F)(F)F)c4)cc3)cc2-c2ccncc2)ccc1Cl
4. c1ccc(Nc2ncc3c(n2)-c2cccn2CC3)cc1
5. O=S(=O)(Cc1cccc2c(CS(=O)(=O)c3ccc(Cl)cc3)cccc12)c1ccc(Cl)cc1
6. C[C@H]1C[C@@H](n2cnc3c(N)nccc32)[C@H](O)[C@@H]1O

Found:
[77.7, 68.5, 6.93, 86.9, 86.7, 110]
